target: SMYD3 (Homo sapiens); construct: Full length recombinant SMYD3 was produced as previously reported; made in house; host or cells: E. coli BL21(DE3), in some cases Rosetta 2; assay: GCI biosensor multi cycle kinetic confirmation of hits; type: binding; conditions: two-fold serial dilution starting at 250 μM, 15 °C, global fit 1:1 model
Readout name: Outcome of multicycle kinetic experiment (sensorgram assessment)

>>> reported_result("N#Cc1cc(Br)ccc1O")
"No binding"
>>> reported_result("O=c1cc(C(F)(F)F)c2cc(Cl)c(O)cc2o1")
"No binding"

###

For each record, write down the corresponding LE (ligand efficiency).
target: SMYD3 (apo, native) (Homo sapiens, UniProt Q9H7B4); construct: Full length recombinant SMYD3 was produced as previously reported; made in house; host or cells: E. coli BL21(DE3), in some cases Rosetta 2; assay: GCI biosensor kinetic screening, apo SMYD3 surface; assay type: binding; settings: LE = −RT ln(KD)/n

Please give the measured LE (ligand efficiency) for this compound: `Cn1cnc(S(N)(=O)=O)c1`
0.63 (kcal^-1 mol^-1)/HA

Please give the measured LE (ligand efficiency) for this compound: `N#Cc1cccc(O)c1`
0.72 (kcal^-1 mol^-1)/HA

Please give the measured LE (ligand efficiency) for this compound: `N#Cc1cc(Br)ccc1O`
0.61 (kcal^-1 mol^-1)/HA

Please give the measured LE (ligand efficiency) for this compound: `O=C(O)c1ccnc2ccccc12`
0.50 (kcal^-1 mol^-1)/HA

Please give the measured LE (ligand efficiency) for this compound: `Nc1nnc(-c2cccnc2)s1`
0.49 (kcal^-1 mol^-1)/HA

Please give the measured LE (ligand efficiency) for this compound: `O=c1cc(C(F)(F)F)c2cc(Cl)c(O)cc2o1`
0.35 (kcal^-1 mol^-1)/HA

Please give the measured LE (ligand efficiency) for this compound: `Nc1nc2cccnc2cc1Br`
0.52 (kcal^-1 mol^-1)/HA

###

Target: SMYD3 (apo, native) (Homo sapiens, UniProt Q9H7B4)
Construct: Full length recombinant SMYD3 was produced as previously reported
Sequence (Q9H7B4 1-428): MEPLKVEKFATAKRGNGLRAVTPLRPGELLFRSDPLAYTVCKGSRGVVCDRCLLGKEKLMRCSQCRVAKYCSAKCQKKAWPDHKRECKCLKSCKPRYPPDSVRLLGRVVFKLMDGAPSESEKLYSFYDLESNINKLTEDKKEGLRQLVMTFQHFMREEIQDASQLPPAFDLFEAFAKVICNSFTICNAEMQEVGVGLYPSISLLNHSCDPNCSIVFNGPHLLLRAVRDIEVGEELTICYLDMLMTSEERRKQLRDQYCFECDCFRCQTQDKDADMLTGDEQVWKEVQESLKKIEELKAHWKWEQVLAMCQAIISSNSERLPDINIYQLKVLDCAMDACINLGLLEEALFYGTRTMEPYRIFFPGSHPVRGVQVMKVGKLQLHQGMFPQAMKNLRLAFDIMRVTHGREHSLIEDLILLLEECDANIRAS
Assay: GCI biosensor kinetic screening, apo SMYD3 surface
Conditions: initial kinetic screening, fragment 250 μM, 15 °C
For each record, write down the corresponding Kd.
Please respond with the number in µM and leave the unit unwritten.

Please give the measured Kd for this molecule: Nc1nc2cccnc2cc1Br [FL01891]
27.4

Please give the measured Kd for this molecule: N#Cc1cccc(O)c1 [FL01507]
17.9

Please give the measured Kd for this molecule: O=C(O)c1ccnc2ccccc12 [FL02261]
17.4

Please give the measured Kd for this molecule: Nc1nnc(-c2cccnc2)s1 [FL08795]
51.3

Please give the measured Kd for this molecule: Nc1ccc(S(N)(=O)=O)cc1 [FL04272]
4.4

Please give the measured Kd for this molecule: Cn1cnc(S(N)(=O)=O)c1 [FL06268]
24.5

Please give the measured Kd for this molecule: O=c1cc(C(F)(F)F)c2cc(Cl)c(O)cc2o1 [FL01677]
44.4

Please give the measured Kd for this molecule: N#Cc1cc(Br)ccc1O [FL01750]
31.6

Please give the measured Kd for this molecule: COc1ccccc1C1OC(=O)CC1C(=O)O (stereo not shown) [FL03512]
38

Please give the measured Kd for this molecule: NC(=O)c1cccc(O)c1 [FL08580]
7.84

Origin of values: paper PMC11187542
